Tested on: A498 renal
TEST: NCI tumour cell line growth inhibition, 48 h
Listing: TGI of selected compounds
QUANTITY_NAME: TGI

1. O=c1cccc(C2CC(CO)C3CCCCN3C2)[nH]1 (stereo not drawn): > 100 µM
2. Cc1ccc2nc(-c3ccc(N(C)C)c(Br)c3)cn2c1: > 100 µM
3. Cc1cc2c(O)c(c1)CN(CC(=O)O)Cc1cc(C)cc(c1O)CN(CC(=O)O)Cc1cc(C)cc(c1O)CN(CC(=O)O)C2: > 100 µM

* * *

Tested on: SK-OV-3 ovarian
TEST: NCI tumour cell line growth inhibition, 48 h
QUANTITY_NAME: TGI

1. CCC(O)(Cc1ccc(OC)cc1)c1ccc(OC)cc1 (stereo not drawn): > 100 µM
2. N#CC1(O)CCCCCCCCCCC1: > 100 µM
3. Cc1ccc2nc(-c3ccc(N(C)C)c(Br)c3)cn2c1: > 100 µM
4. CC[O-].CC[O-].O=S(=O)([O-])c1ccc([O-])c2ncccc12.O=S(=O)([O-])c1ccc([O-])c2ncccc12.[Ti+4]: > 100 µM
5. O=C(O)c1cccc2cccc(-c3cccc4cccc(C(=O)O)c34)c12: > 100 µM
6. CN(C)CC1CCC/C1=N\O (stereo not drawn): > 100 µM
7. COC1C2C=CC(C2)[C@H]1[N+](=O)[O-] (stereo partly drawn): > 100 µM
8. O=P(O)(O)c1ccccc1Oc1ccccc1: > 100 µM
9. NCCCCNCCCNC(=O)c1nc(-c2nc(CCN)sc2Cl)sc1Cl: > 100 µM
10. C=C(C)OCOCCOC: > 100 µM
11. COC(=O)Cc1ccc2c(cnn2-c2ccccc2)c1OC: > 10 µM
12. CCn1c(-c2nonc2N)nc2c(C#CC(C)(C)O)nc(OCCNC)cc21: > 25 µM
13. CC(=O)OCC(OC(C)=O)C(OC(C)=O)C(OC(C)=O)C(=O)CNn1c(-c2ccccc2Cl)nc2ccccc2c1=O (stereo not drawn): > 100 µM

Reference for the values: PubChem BioAssay (NCI)
